Source of measurements: ChEMBL document CHEMBL5357038

Molecular target: Cholinesterase (Homo sapiens)
Sequence (P06276 whole entry): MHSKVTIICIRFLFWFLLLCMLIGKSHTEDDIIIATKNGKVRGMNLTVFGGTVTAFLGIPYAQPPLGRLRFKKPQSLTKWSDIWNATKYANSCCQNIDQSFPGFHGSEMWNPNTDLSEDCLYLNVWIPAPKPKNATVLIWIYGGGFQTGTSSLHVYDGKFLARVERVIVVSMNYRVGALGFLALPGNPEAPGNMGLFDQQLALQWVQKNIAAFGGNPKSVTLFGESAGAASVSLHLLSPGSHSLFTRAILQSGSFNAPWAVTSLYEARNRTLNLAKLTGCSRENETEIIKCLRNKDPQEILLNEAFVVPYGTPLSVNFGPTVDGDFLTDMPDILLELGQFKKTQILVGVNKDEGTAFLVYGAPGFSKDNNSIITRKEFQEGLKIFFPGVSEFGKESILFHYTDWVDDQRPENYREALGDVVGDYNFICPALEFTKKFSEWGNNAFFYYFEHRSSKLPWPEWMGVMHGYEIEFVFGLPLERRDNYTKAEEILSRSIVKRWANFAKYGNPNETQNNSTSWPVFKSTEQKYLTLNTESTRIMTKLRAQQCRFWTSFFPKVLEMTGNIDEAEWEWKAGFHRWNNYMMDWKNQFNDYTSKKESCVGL
Assay: Inhibition of BuChE (unknown origin) by Ellman's method
READOUT KIND: pIC50
Lab note — pIC50 values are minus log10 of concentrations in M.

# get_value(readout='pIC50', item= COc1ccc2c(c1)C1(NNC(Nc3ccc(C)c(C)c3)=C1[N+](=O)[O-])C(=O)N2 (stereo not given) ) 4.33

# get_value(readout='pIC50', item= Cc1ccccc1NC1=C([N+](=O)[O-])C2(NN1)C(=O)Nc1ccccc12 (stereo not given) ) 4.70

# get_value(readout='pIC50', item= Cc1ccc(NC2=C([N+](=O)[O-])C3(NN2)C(=O)Nc2ccccc23)cc1 (stereo not given) ) 4.60

# get_value(readout='pIC50', item= Cc1ccccc1NC1=C([N+](=O)[O-])C2(NN1)C(=O)Nc1ccc(Cl)cc12 (stereo not given) ) 5.04

# get_value(readout='pIC50', item= COc1ccc(NC2=C([N+](=O)[O-])C3(NN2)C(=O)Nc2ccccc23)cc1 (stereo not given) ) 4.46
